Let's look at some compounds and their measured pIC50.
biological target: Sodium channel protein type 2 subunit alpha (Homo sapiens, UniProt Q99250); experiment: Inhibition of human Nav1.2 expressed in HEK293 cells by electrophysiology assay
Sequence (Q99250 whole entry): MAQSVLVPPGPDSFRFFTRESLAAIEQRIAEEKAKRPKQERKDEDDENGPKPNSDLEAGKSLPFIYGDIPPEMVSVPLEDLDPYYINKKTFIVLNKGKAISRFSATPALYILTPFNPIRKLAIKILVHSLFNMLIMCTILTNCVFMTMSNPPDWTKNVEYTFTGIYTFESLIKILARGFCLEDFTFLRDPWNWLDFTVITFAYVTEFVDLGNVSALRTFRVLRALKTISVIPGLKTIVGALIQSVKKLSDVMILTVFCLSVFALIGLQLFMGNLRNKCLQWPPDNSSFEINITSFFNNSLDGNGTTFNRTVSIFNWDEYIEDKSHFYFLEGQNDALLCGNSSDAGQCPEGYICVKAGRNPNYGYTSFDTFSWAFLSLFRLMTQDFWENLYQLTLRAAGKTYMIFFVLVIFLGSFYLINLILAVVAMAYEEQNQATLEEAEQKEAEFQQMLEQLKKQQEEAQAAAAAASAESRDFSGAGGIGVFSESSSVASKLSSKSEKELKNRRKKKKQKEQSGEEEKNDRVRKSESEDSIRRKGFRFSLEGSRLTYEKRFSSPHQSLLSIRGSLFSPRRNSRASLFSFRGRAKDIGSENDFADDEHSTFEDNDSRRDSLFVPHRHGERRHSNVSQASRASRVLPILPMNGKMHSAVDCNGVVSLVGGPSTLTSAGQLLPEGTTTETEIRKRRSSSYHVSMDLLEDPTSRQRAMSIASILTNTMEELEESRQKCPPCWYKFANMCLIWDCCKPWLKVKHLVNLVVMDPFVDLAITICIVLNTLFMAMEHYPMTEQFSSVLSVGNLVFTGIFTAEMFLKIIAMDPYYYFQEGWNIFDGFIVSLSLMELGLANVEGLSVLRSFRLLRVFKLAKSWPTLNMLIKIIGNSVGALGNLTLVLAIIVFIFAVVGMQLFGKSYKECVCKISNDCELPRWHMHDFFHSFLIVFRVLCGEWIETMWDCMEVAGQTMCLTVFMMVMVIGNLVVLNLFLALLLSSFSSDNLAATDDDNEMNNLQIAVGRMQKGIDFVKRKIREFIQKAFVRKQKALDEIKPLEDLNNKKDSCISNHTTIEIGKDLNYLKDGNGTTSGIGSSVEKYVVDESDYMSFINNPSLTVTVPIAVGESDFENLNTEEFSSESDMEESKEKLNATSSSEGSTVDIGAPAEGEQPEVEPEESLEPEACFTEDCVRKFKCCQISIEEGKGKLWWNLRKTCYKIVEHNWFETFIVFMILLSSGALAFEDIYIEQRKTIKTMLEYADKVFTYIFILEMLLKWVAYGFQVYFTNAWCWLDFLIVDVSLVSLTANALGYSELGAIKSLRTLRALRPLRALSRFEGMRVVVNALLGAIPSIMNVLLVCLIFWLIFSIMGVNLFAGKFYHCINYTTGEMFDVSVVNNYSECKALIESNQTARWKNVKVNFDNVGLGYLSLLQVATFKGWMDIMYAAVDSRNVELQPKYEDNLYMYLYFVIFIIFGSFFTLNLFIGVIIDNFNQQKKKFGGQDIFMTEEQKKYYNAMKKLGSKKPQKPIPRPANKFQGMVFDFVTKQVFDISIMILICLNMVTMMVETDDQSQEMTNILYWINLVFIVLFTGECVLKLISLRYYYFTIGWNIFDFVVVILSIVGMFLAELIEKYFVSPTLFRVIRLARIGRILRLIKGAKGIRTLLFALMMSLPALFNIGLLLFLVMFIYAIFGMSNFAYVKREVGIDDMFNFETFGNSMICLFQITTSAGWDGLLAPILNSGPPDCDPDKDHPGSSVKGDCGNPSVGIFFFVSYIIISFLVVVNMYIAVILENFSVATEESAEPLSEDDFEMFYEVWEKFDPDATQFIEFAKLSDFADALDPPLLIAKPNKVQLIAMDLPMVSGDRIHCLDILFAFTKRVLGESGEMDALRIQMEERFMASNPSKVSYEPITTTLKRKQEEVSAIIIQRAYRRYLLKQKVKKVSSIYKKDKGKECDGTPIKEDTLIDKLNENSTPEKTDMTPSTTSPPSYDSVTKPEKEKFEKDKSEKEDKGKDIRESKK
Kindly note that pIC50 refers to -log10 of the concentration in mol/L and answer with the value alone.

// below: answered compounds
O=C1N(Cc2ccc(C(F)(F)F)o2)c2ccccc2[C@]12COc1cc3c(cc12)OCO3 [FUNAPIDE]; 6.22
O=C(NS(=O)(=O)N1CCC1)c1cc(C2CC2)c(OCC23CC4CC(CC(C4)C2)C3)cc1F; 7.70

Next item in the queue.
INPUT: // returns reported pIC50 for input N#Cc1cc(S(=O)(=O)Nc2ncns2)ccc1Oc1ccc(-c2cccc(C(F)(F)F)c2)cc1-c1ccnc(CNCCC2CCNCC2)c1
OUTPUT: 8.52

###

Let's look at some compounds and their measured pIC50.
molecular target: Sodium channel protein type 10 subunit alpha (Homo sapiens, UniProt Q9Y5Y9); experiment: Inhibition of human Nav1.8 expressed in HEK293 cells by electrophysiology assay
Sequence (Q9Y5Y9 whole entry): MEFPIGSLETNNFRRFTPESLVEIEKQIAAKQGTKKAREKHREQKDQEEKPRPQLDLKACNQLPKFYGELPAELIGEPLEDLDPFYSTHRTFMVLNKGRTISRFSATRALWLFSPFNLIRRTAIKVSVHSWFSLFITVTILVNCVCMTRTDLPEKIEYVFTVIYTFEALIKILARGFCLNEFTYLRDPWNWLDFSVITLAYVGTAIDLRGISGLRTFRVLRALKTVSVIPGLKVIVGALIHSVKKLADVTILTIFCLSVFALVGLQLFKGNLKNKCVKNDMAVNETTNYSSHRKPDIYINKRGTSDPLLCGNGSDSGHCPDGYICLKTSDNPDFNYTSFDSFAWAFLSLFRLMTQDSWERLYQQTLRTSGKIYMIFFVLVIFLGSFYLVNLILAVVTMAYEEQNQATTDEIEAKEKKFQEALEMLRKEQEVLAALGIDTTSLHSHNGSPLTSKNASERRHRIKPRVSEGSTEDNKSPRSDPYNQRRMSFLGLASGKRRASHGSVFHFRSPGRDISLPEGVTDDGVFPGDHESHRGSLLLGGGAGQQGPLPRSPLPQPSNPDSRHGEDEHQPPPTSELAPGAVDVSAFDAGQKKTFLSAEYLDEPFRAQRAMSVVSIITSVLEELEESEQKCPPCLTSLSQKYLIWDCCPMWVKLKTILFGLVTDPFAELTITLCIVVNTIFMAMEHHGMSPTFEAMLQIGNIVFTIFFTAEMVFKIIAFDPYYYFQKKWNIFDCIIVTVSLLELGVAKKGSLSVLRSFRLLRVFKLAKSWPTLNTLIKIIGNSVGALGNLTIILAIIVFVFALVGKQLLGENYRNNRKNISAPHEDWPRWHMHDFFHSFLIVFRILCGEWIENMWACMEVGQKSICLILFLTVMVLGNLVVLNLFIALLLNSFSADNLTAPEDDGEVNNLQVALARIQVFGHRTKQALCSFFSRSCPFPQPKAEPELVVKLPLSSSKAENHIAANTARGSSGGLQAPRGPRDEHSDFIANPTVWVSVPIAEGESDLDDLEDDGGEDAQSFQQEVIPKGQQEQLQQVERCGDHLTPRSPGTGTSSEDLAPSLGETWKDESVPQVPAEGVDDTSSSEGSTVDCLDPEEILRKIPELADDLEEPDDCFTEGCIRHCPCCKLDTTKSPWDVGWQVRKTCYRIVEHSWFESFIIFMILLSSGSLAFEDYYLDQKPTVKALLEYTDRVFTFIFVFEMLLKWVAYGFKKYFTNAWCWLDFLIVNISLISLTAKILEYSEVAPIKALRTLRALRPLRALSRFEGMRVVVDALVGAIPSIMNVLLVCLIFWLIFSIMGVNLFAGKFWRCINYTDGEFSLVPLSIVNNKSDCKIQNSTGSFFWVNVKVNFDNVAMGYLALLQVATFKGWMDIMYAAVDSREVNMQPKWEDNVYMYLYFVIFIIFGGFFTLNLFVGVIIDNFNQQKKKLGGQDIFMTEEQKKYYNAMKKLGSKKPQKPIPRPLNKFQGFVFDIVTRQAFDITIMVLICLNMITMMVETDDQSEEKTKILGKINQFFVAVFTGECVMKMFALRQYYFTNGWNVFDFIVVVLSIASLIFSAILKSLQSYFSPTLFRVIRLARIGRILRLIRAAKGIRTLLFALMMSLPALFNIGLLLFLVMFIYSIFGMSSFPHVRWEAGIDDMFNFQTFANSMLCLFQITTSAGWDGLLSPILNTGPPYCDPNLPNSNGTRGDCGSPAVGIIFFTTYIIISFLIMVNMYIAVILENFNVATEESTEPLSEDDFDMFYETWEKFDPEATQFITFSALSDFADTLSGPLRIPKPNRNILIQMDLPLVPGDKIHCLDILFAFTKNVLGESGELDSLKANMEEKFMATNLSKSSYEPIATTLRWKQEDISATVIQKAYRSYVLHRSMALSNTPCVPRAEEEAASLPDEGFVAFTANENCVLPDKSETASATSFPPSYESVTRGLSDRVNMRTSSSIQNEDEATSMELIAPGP
Kindly note that pIC50 refers to -log10 of the concentration in mol/L and answer with the value alone.

N#Cc1cc(S(=O)(=O)Nc2ncns2)ccc1Oc1ccc(-c2cccc(C(F)(F)F)c2)cc1-c1ccnc(CNCCC2CCNCC2)c1; 4.59

Next item in the queue.
INPUT: // returns reported pIC50 for input O=C1N(Cc2ccc(C(F)(F)F)o2)c2ccccc2[C@]12COc1cc3c(cc12)OCO3 [FUNAPIDE]
OUTPUT: 5.32

###

target: Sodium channel protein type 1 subunit alpha (Homo sapiens); assay: Inhibition of human Nav1.1 expressed in HEK293 cells by electrophysiology assay; assay type: cell-based
pIC50: −log10 of the molar value.
readout: pIC50

INPUT: // returns reported pIC50 for input COc1cc(-c2cc(F)cc(Cl)c2)c(F)cc1-n1c(=O)ccc2cc(S(=O)(=O)Nc3ccon3)ccc21
OUTPUT: < 4.85

###

Let's look at some molecules and their measured pIC50.
molecular target: Sodium channel protein type 8 subunit alpha (Homo sapiens, UniProt Q9UQD0); assay: Inhibition of human Nav1.6 expressed in HEK293 cells by electrophysiology assay
Kindly note that pIC50 refers to -log10 of the concentration in mol/L and answer with the value alone.

// below: answered molecules
N#Cc1cc(S(=O)(=O)Nc2ncns2)ccc1Oc1ccc(-c2cccc(C(F)(F)F)c2)cc1-c1ccnc(CNCCC2CCNCC2)c1; 8.24
O=C(NS(=O)(=O)N1CCC1)c1cc(C2CC2)c(OCC23CC4CC(CC(C4)C2)C3)cc1F; 6.32

Next item in the queue.
INPUT: // returns reported pIC50 for input O=C1N(Cc2ccc(C(F)(F)F)o2)c2ccccc2[C@]12COc1cc3c(cc12)OCO3 [FUNAPIDE]
OUTPUT: 6.77
